Value source: patent US12269800B2

Here the recorded Condition 2 Conversion (%) is given for each entry.
- Type: physicochemical
- experimental-conditions: DI water, 25° C., 0.5 mM, time 24 h

molecule	Condition 2 Conversion (%)
COc1ccc([C@]23CCN(C)[C@H]2CC2(CC3)OCC(C34CC5CC(CC(C5)C3)C4)O2)cc1OC (stereo partly drawn)	0%
COc1ccc([C@]23CCN(C)[C@H]2CC2(CC3)OCC(COc3ccccc3OC)O2)cc1OC (stereo partly drawn)	0%
COc1ccc([C@]23CCN(C)[C@H]2CC2(CC3)Oc3ccccc3O2)cc1OC	0%
COc1ccc([C@@]23CCC(OC(=O)c4ccc(C(F)(F)F)cc4)=C[C@@H]2N(C)CC3)cc1OC	0%
CCCCC(=O)OC1=C[C@@H]2N(C)CC[C@]2(c2ccc(OC)c(OC)c2)CC1	0%
CCC(C)CC(=O)OC1=C[C@@H]2N(C)CC[C@]2(c2ccc(OC)c(OC)c2)CC1 (stereo partly drawn)	0%
COc1ccc([C@@]23CC/C(=N/NC(=O)Nc4ccccc4Cl)C[C@@H]2N(C)CC3)cc1OC	1%
COc1ccc([C@@]23CCC(=NNC(=O)CCCC(=O)O)C[C@@H]2N(C)CC3)cc1OC	100%
COc1ccc([C@@]23CCC(=NNC(=O)c4ccc(F)cc4)C[C@@H]2N(C)CC3)cc1OC	89.93%

###

- test-description: Hydrolysis Assay of Example A2, Condition 1 (SGF with pepsin, pH 1.5, 37° C.)
- Assay type: physicochemical
- experimental-conditions: SGF with pepsin pH 1.5, 37° C.; time 24 h; value after the slash
measured-property: Condition 1 Conversion (%), second value of a/b

compound	result
COc1ccc([C@@]23CC/C(=N\OC(C)(C)OC)C[C@@H]2N(C)CC3)cc1OC	100%
COc1ccc([C@@]23CC/C(=N/OC(C)(C)OC)C[C@@H]2N(C)CC3)cc1OC	100%
COc1ccc([C@@]23CCC(=NOCC(=O)OC(C)(C)C)C[C@@H]2N(C)CC3)cc1OC	6.42%
COc1ccc([C@@]23CCC(=NOC4CCCCO4)C[C@@H]2N(C)CC3)cc1OC (stereo partly shown)	100%

###

Here the recorded Human Plasma Prodrug (%) is given for each entry.
- experimental-conditions: 30 min, 5 µM
measured-property: Human Plasma Prodrug (%)

compound	measured-property	measure-unit	cmp	numeric-result
CCCC(CC)CC(=O)OC1=C[C@@H]2N(C)CC[C@]2(c2ccc(OC)c(OC)c2)CC1 (some centres unmarked) [Compound 398]	Human Plasma Prodrug (%)	%	=	85.0
CCC(C)(CC)C(=O)OC1=C[C@@H]2N(C)CC[C@]2(c2ccc(OC)c(OC)c2)CC1 [Compound 430]	Human Plasma Prodrug (%)	%	>	99
COc1ccc([C@@]23CCC(OC(=O)c4c(C)cc(C)cc4C)=C[C@@H]2N(C)CC3)cc1OC [Compound 356]	Human Plasma Prodrug (%)	%	>	99
COc1ccc([C@@]23CCC(OC(=O)c4cccc(C)c4C)=C[C@@H]2N(C)CC3)cc1OC [Compound 373]	Human Plasma Prodrug (%)	%	>	99
COc1ccc([C@@]23CCC(OC(=O)c4ccc(C(C)C)cc4)=C[C@@H]2N(C)CC3)cc1OC [Compound 371]	Human Plasma Prodrug (%)	%	=	94.4

###

Here the recorded Human Plasma Prodrug (%) is given for each entry.
- experimental-conditions: 240 min, 5 µM

compound	Human Plasma Prodrug (%)
COc1ccc([C@@]23CCC(OC(=O)c4ccc(C(C)C)cc4)=C[C@@H]2N(C)CC3)cc1OC	78.0
CCC(CC)C(=O)OC1=C[C@@H]2N(C)CC[C@]2(c2ccc(OC)c(OC)c2)CC1	66.4
CCCC(CC)CC(=O)OC1=C[C@@H]2N(C)CC[C@]2(c2ccc(OC)c(OC)c2)CC1 (stereo partly shown)	25.5
CCC(C)(C)C(=O)OC1=C[C@@H]2N(C)CC[C@]2(c2ccc(OC)c(OC)c2)CC1	46.0
COc1ccc([C@@]23CCC(OC(=O)CCC(C)C)=C[C@@H]2N(C)CC3)cc1OC	0.2
CCCCCC(C)C(=O)OC1=C[C@@H]2N(C)CC[C@]2(c2ccc(OC)c(OC)c2)CC1 (stereo partly shown)	1.9
CCCC(CCC)C(=O)OC1=C[C@@H]2N(C)CC[C@]2(c2ccc(OC)c(OC)c2)CC1	91.2

###

- experimental-conditions: 240 min, 5 µM
Here the recorded Rat Plasma Prodrug (%) is given for each entry.
measured-property: Rat Plasma Prodrug (%)

molecule	cmp	numeric-result
COc1ccc([C@@]23CCC(OC(=O)c4cccc(C)c4C)=C[C@@H]2N(C)CC3)cc1OC [Compound 373]	=	1.3
CCC(C)C(=O)OC1=C[C@@H]2N(C)CC[C@]2(c2ccc(OC)c(OC)c2)CC1 (some centres unmarked) [Compound 425]	=	0.0
COc1ccc([C@@]23CCC(OC(=O)c4cccc(C)c4)=C[C@@H]2N(C)CC3)cc1OC [Compound 374]	=	0.0
COc1ccc([C@@]23CCC(OC(=O)CCC(C)C)=C[C@@H]2N(C)CC3)cc1OC [Compound 399]	=	0.0
COc1ccc([C@@]23CCC(OC(=O)CCN)=C[C@@H]2N(C)CC3)cc1OC [Compound 397]	=	0.1
COc1ccc([C@@]23CCC(OC(=O)CC(C)(C)C)=C[C@@H]2N(C)CC3)cc1OC [Compound 431]	=	0.2
CCCCCCCC(=O)OC1=C[C@@H]2N(C)CC[C@]2(c2ccc(OC)c(OC)c2)CC1 [Compound 395]	=	0.1
CCC(CC)C(=O)OC1=C[C@@H]2N(C)CC[C@]2(c2ccc(OC)c(OC)c2)CC1 [Compound 426]	=	0.1
CCCC(C)C(=O)OC1=C[C@@H]2N(C)CC[C@]2(c2ccc(OC)c(OC)c2)CC1 (some centres unmarked) [Compound 402]	=	0.0
CCCC(C)(C)C(=O)OC1=C[C@@H]2N(C)CC[C@]2(c2ccc(OC)c(OC)c2)CC1 [Compound 429]	=	26.2
COCCCCC(=O)OC1=C[C@@H]2N(C)CC[C@]2(c2ccc(OC)c(OC)c2)CC1 [Compound 404]	=	0.2
CCCCC(CC)C(=O)OC1=C[C@@H]2N(C)CC[C@]2(c2ccc(OC)c(OC)c2)CC1 (some centres unmarked) [Compound 401]	=	3.3
COc1ccc([C@@]23CCC(OC(=O)c4c(C)cccc4C)=C[C@@H]2N(C)CC3)cc1OC [Compound 372]	>	99
CCC(C)(C)C(=O)OC1=C[C@@H]2N(C)CC[C@]2(c2ccc(OC)c(OC)c2)CC1 [Compound 428]	=	3.9

###

Here the recorded Condition 1 Conversion (%) is given for each entry.
- test-description: Hydrolysis Assay of Example A2, Condition 1 (SGF with pepsin, pH 1.5, 37° C.)
- Assay type: physicochemical
- experimental-conditions: SGF with pepsin pH 1.5, 37° C., 0.5 mM; time 24 h
measured-property: Condition 1 Conversion (%)

compound	numeric-result
COc1ccc([C@]23CCN(C)[C@H]2CC2(CC3)OCC(C)O2)cc1OC (stereo partly drawn)	0
CCCCC(=O)OC1=C[C@@H]2N(C)CC[C@]2(c2ccc(OC)c(OC)c2)CC1	0
COc1ccc([C@]23CCN(C)[C@H]2CC2(CC3)OCC(c3ccncc3)O2)cc1OC (stereo partly drawn)	0
COc1ccc([C@]23CCN(C)[C@H]2CC2(CC3)OC[C@H](c3cccnc3)O2)cc1OC (stereo partly drawn)	0
COc1ccc([C@]23CCN(C)[C@H]2CC2(CC3)OCC(COCc3ccccc3)O2)cc1OC (stereo partly drawn)	46.8
COc1ccc([C@]23CCN(C)[C@H]2CC2(CC3)OCC(C34CC5CC(CC(C5)C3)C4)O2)cc1OC (stereo partly drawn)	0

###

- test-description: Hydrolysis Assay of Example A2, Condition 1 (SGF with pepsin, pH 1.5, 37° C.)
- Type: physicochemical
- experimental-conditions: SGF with pepsin pH 1.5, 37° C.; time 4 h; value after the slash
Here the recorded Condition 1 Conversion (%), second value of a/b is given for each entry.
measured-property: Condition 1 Conversion (%), second value of a/b

molecule	result
COc1ccc([C@@]23CCC(=NOCC(=O)OC(C)(C)C)C[C@@H]2N(C)CC3)cc1OC	6.42%
COc1ccc([C@@]23CCC(=NOC4CCCCO4)C[C@@H]2N(C)CC3)cc1OC (stereo partly shown)	77.75%
COc1ccc([C@@]23CC/C(=N/OC(C)(C)OC)C[C@@H]2N(C)CC3)cc1OC	100%
COc1ccc([C@@]23CC/C(=N\OC(C)(C)OC)C[C@@H]2N(C)CC3)cc1OC	100%

###

Here the recorded Condition 1 Conversion (%) is given for each entry.
- test-description: Hydrolysis Assay of Example A2, Condition 1 (SGF with pepsin, pH 1.5, 37° C.)
- Format: physicochemical
- experimental-conditions: SGF with pepsin pH 1.5, 37° C., 0.5 mM; time 24 h
measured-property: Condition 1 Conversion (%)

compound	measured-property	result
COc1ccc([C@]23CCN(C)[C@H]2CC2(CC3)OC[C@@H](c3ccccc3)O2)cc1OC (stereo partly shown) [Compound 081]	Condition 1 Conversion (%)	0%
COc1ccc([C@@]23CCC(=NNC(=O)CCCC(=O)O)C[C@@H]2N(C)CC3)cc1OC [Compound 246]	Condition 1 Conversion (%)	100%
COc1ccc([C@]23CCN(C)[C@H]2CC2(CC3)OCC(COc3ccccc3OC)O2)cc1OC (stereo partly shown) [Compound 216]	Condition 1 Conversion (%)	0%
COc1ccc([C@@]23CC/C(=N/NC(=O)Nc4ccccc4Cl)C[C@@H]2N(C)CC3)cc1OC [Compound 270]	Condition 1 Conversion (%)	1%
C=CC1OC2(CC[C@@]3(c4ccc(OC)c(OC)c4)CCN(C)[C@H]3C2)OC1C=C (stereo partly shown) [Compound 213]	Condition 1 Conversion (%)	0%
COc1ccc([C@@]23CC/C(=N/OC(C)(C)OC)C[C@@H]2N(C)CC3)cc1OC [Compound 219]	Condition 1 Conversion (%)	0%
COc1ccc([C@]23CCN(C)[C@H]2CC2(CC3)OCCS2)cc1OC (stereo partly shown) [Compound 69]	Condition 1 Conversion (%)	0%
COc1ccc([C@@]23CCC(OC(=O)c4ccc(C(F)(F)F)cc4)=C[C@@H]2N(C)CC3)cc1OC [Compound 310]	Condition 1 Conversion (%)	0%
CCC(C)CC(=O)OC1=C[C@@H]2N(C)CC[C@]2(c2ccc(OC)c(OC)c2)CC1 (stereo partly shown) [Compound 316]	Condition 1 Conversion (%)	0%
COc1ccc([C@@]23CCC(=NOCC(=O)OC(C)(C)C)C[C@@H]2N(C)CC3)cc1OC [Compound 202]	Condition 1 Conversion (%)	64.4%
COc1ccc([C@@]23CC/C(=N\OC(C)(C)OC)C[C@@H]2N(C)CC3)cc1OC [Compound 204]	Condition 1 Conversion (%)	0%
COc1ccc([C@@]23CCN(C)[C@@H]2CC2(CC3)OCCS2)cc1OC (stereo partly shown) [Compound 070]	Condition 1 Conversion (%)	0%
COc1ccc([C@@]23CCC(=NOC4CCCCO4)C[C@@H]2N(C)CC3)cc1OC (stereo partly shown) [Compound 206]	Condition 1 Conversion (%)	0%
COc1ccc([C@]23CCN(C)[C@H]2CC2(CC3)OCC(c3cccc([N+](=O)[O-])c3)O2)cc1OC (stereo partly shown) [Compound 113]	Condition 1 Conversion (%)	0%
COc1cccc(C2COC3(CC[C@@]4(c5ccc(OC)c(OC)c5)CCN(C)[C@H]4C3)O2)c1 (stereo partly shown) [Compound 111]	Condition 1 Conversion (%)	0%
COc1ccc([C@]23CCN(C)[C@H]2CC2(CC3)Oc3ccccc3O2)cc1OC [Compound 300]	Condition 1 Conversion (%)	0%
